# System: MILI (PIWIL2) piRISC loaded with L1MC piRNA (26 nt);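 also: 1 nM active piRISC with 0.1 nM target library at 33 °C single turnover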
# ASSAY EXPLANATION: pre-steady-state target cleavage rate (min^-1); guide: L1MC piRNA 5'p-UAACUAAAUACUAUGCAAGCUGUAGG; higher = faster piRNA-guided slicing of the target
# PROTOCOL CONDITIONS: auxiliary factor: 500 nM mouse GTSF1
The label depends only on pre-steady-state target cleavage rate: satisfied if it is at least 0.1, not satisfied if it is smaller.

ITEM SEQUENCE | TARGET SYSTEM | CLASS
UCCUGGAUGUCCUACGAUAGUAUUUAGUUA | MILI (PIWIL2) piRISC loaded with L1MC piRNA (26 nt) | not satisfied
UCCUCCUACAGCUUGCUAAGUAUUUACAAA | MILI (PIWIL2) piRISC loaded with L1MC piRNA (26 nt) | not satisfied
UCCUGGAUGAGCUUGCAUCGUAUUUAGUUA | MILI (PIWIL2) piRISC loaded with L1MC piRNA (26 nt) | not satisfied
UCCUCCUACGCUUGCAUAGUAUUUAGUUA | MILI (PIWIL2) piRISC loaded with L1MC piRNA (26 nt) | satisfied
UCCUCCUACAGCUUGUCAUAGUAUUUAGUUA | MILI (PIWIL2) piRISC loaded with L1MC piRNA (26 nt) | satisfied
UCCUGGAUGUCGUAGCAUAGUAUUUAGAUA | MILI (PIWIL2) piRISC loaded with L1MC piRNA (26 nt) | not satisfied
UCCUGGAUGUCGAAGCAUAGUGUUUAGUUA | MILI (PIWIL2) piRISC loaded with L1MC piRNA (26 nt) | not satisfied
UCCUGCUACAGCUUGCAUAGUAUUUAGUAA | MILI (PIWIL2) piRISC loaded with L1MC piRNA (26 nt) | satisfied
UCCUGCUACAGCUUGCAUAGUAUUUUCAUA | MILI (PIWIL2) piRISC loaded with L1MC piRNA (26 nt) | satisfied
UCCUGGUUCAGCUUGCAUUGUAUUUAGUUA | MILI (PIWIL2) piRISC loaded with L1MC piRNA (26 nt) | satisfied
UCCUCCUACAGCUUGCAUAGUAAUUUGUUA | MILI (PIWIL2) piRISC loaded with L1MC piRNA (26 nt) | satisfied
UCCUGGUACAGCUUGCAUAGAAUUUAGAUA | MILI (PIWIL2) piRISC loaded with L1MC piRNA (26 nt) | not satisfied
UCCUGCUACAGCUUGCAUAGUACUUAGUUA | MILI (PIWIL2) piRISC loaded with L1MC piRNA (26 nt) | satisfied

====

# pre-steady-state target cleavage rate per entry
# Tested on: MILI (PIWIL2) piRISC loaded with piRNA #1 (26 nt);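 also: 1 nM active piRISC with 0.1 nM target library at 33 °C single turnover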
# ASSAY EXPLANATION: pre-steady-state target cleavage rate (min^-1); guide: piRNA #1 5'p-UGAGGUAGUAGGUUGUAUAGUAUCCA; higher = faster piRNA-guided slicing of the target
# PROTOCOL CONDITIONS: auxiliary factor: 500 nM mouse GTSF1

ITEM SEQUENCE | pre-steady-state target cleavage rate
GGAGUGGAUACUAUACCACCUACUACCUCA | 0.188
GGAGUGAUACUAUACAACCUACUACCUCA | 0.174
GGAGACCUAUGAUUACAACCUACUACCUCC [g2:g17:cont:t1C] | 0.00979
GGAGACCAAUACUAUACAACCUACUACCUCA | 0.193
GGAGUGGAUACUAUAGAACCUACUACCUGA | 0.0453
GGAGACCUAUCUAUACAACAUACUACCUCA | 0.0382
GGAGUGGAUACUAUACAAGCAACUACCUCA | 0.00874
GGAGACCUUACUAUACAACCUACAUCCUCA | 0.0472
GGAGACCAUAACUAUACAACCUACUACCUCA | 0.135
GGAGACCUAACUAUACUUCCUACUACCUCA | 0.054
GGAGACCUAUCUAUUCAACGUACUACCUCA | 0.00945
GGAGACCAUACUAUACAACCUACUUGGAGA [g7:g23:cont:t1A] | 0.00469
GGAGACCUAACUUUACAACCUACAACCUCA | 0.0823

====

# Tested on: EfPiwi piRISC loaded with L1MC piRNA (26 nt)
# ASSAY EXPLANATION: pre-steady-state target cleavage rate (min^-1); auxiliary factor: 500 nM Ephydatia muelleri Gtsf1; guide: L1MC piRNA 5'p-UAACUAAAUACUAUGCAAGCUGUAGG; MIWI and MILI are mouse PIWI proteins and EfPiwi is from a freshwater sponge; tags in brackets are library labels; higher = faster piRNA-guided slicing of the target
Please note: Fulfilled applies when pre-steady-state target cleavage rate is 0.009 or greater, and Not fulfilled applies otherwise.

ITEM SEQUENCE | CLASS
UCCUGGAUGUCGAACGUAUGUCUUUAGUUA | Not fulfilled
UCCUGCUACAGCUUGCAUAGUAUCUUAGUUA | Not fulfilled
UCCUGGAUCACGAUGCAUAGUAUUUAGUUA | Fulfilled
UCCUGCUUCAGCUUGCAUAGUAUUAAGUUA | Not fulfilled
UCCUGGAACAGCUUGCAUAGUAUUUUGAUA | Not fulfilled
UCCUGGAUCAGCUAUGCAUAGUAUUUAGUUA | Fulfilled
UCCUGGAACACCUUGCAUAGUAUUAAGUUA | Not fulfilled
UCCUGGAACAGCUUACAUAGUAUUUAGUUA | Fulfilled
UCCUCCUACUCCUUGCAUAGUAUUUAGUUA | Fulfilled
UCCUGGAUGUCGAACGUAAGUAUUUGGUUA | Not fulfilled
UCCUGGAACAGCUUGCAUAGUAUUUAAUUA | Not fulfilled
UCCUGCUACAGCUUGCAUAGUAUUUGGUUA | Not fulfilled
UCCUGGAAGAGCUUGGAUAGUAUUUAGUUA | Not fulfilled
UCCUGCUACAGCUUGCAUAGUAUAAAGUUA | Not fulfilled
UCCUGGAUCUGCUAGCAUAGUAUUUAGUUA | Fulfilled
UCCUGGAUGUGCUCGCAUAGUAUUUAGUUA | Not fulfilled
UCCUGCUACAGCUUGGUUAGUAUUUAGUAA | Not fulfilled
UCCUCCUACAGGAAGCAUAGUAUUUAGUUA | Fulfilled
UCCUGCUACAGGAUGCAUAGUAUUUAGUUA | Fulfilled
UCCUGGAUGUCGAACGAUAGUGAUUUAGUUA | Not fulfilled
UCCUGCUACAGACUUGCAUAGUAUUUAGUUA | Not fulfilled
UCCUGGUACACCUUGCAUAGUAUUUAGAUA | Not fulfilled
UCCUGGUACAGCUUGCAUAGUAUAAAGUUA | Not fulfilled
UCCUCCUACAGCUUGCAUAGUAUUUAUUUA | Fulfilled
UCCUGGUACAGCUUCCAUAGUAUUUAGAUA | Not fulfilled
UCCUCCUACAGCUUGCAAUGUAUUUAGUUA | Fulfilled
UCCUCCUACAGCUUGCAUAGUAAUUACUUA | Not fulfilled
UCCUGCUGACAGCUUGCAUAGUAUUUAGUUA | Fulfilled
UCCUGGAUCAGCUUGCAUAGUAAUUUAGUUA | Not fulfilled
UCCUGGAUGUCGAUGCAAAGUAUUUUGUUA | Not fulfilled
UCCUGGAUGAGCUUGCAUAGUAUUGAGUUA | Not fulfilled
UCCUGGAUGAGCUUGCAUAGUGUUUAGUUA | Fulfilled
UCCUCCAACAGCUUGCAUAGUAUUUUGUUA | Not fulfilled
UCCUGGAUCAGCUUGCCAUAGUAUUUAGUUA | Not fulfilled
UCCUGGAACAGCUUGCAUAGUAUUUAGCUUA | Not fulfilled
UCCUGGAUGUCGAACCAGAGUAUUUAGUUA | Not fulfilled
UCCUGGUACAGCUUGCAUAGUAAUUAGUAA | Not fulfilled
UCCUCCUUCAGCUUGCAUAGUAUAUAGUUA | Fulfilled
UCCUCCUACAGCUUGGUAAGUAUUUAGUUA | Not fulfilled
UCCUGGAUGAGCUUUCAUAGUAUUUAGUUA | Not fulfilled
UCCUGCUACAGCUUGCAUAGUAGUUUAGUUA | Not fulfilled
UCCUGGAUCAGCUAGCAUAGUAUUUAGAAA | Not fulfilled
UCCUGGAUGUGCUUGCAUAGUAUUUUGUUA | Not fulfilled
UCCUGGAUCAGCUAGCAUAGUAUUAAGUUA | Not fulfilled
UCCUGGUACAGCUUGCAUAGUAUUUUGAUA | Not fulfilled
UCCUGGUAUAGCUUGCAUAGUAUUUAGUUA | Fulfilled
UCCUGCAACAGCUUGCAUAGUAUUUUGUUA | Not fulfilled
UCCUGCUACAGCUAGCUUAGUAUUUAGUUA | Fulfilled
UCCUCCUACAGCUUGUCAUAGUAUUUAGUUA | Fulfilled
UCCUGCUACAGCUUGCAUAGAUUUUACAAA | Not fulfilled
UCCUGGAUCAGCUUGGCAUAGUAUUUAGUUA | Fulfilled
UCCUGGAAAGCUUGCAUAGUAUUUAGUUA | Fulfilled
UCCUCCUACAGCUAGCAUAGUAUUUACUUA | Not fulfilled
UCCUGGAUCUGCUUGCAUAGUAUUAAGUUA | Not fulfilled
